Recorded values, source patent US8859588B2.

- EXPERIMENTAL_SYSTEM: rhesus (Macacca Mulatta) H3 receptor (Macaca mulatta)
- Construct: rhesus monkey (Macacca Mulatta) 445 amino acid H3 receptor; (Genbank #AY231164); membrane preparation
- Sequence (Q865E1 1-445): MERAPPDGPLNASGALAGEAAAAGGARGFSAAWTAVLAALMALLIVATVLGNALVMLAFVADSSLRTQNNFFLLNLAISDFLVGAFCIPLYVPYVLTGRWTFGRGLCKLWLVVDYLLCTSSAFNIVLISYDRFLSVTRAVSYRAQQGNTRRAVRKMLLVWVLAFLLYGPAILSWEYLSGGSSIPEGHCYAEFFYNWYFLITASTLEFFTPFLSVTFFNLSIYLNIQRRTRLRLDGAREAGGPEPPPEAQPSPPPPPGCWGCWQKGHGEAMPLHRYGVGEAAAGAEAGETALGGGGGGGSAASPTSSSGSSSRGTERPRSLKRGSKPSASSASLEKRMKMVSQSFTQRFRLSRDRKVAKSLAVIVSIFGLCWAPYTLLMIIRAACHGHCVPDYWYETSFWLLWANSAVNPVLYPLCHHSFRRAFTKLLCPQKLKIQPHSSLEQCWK
- EXPERIMENTAL_DETAILS: Rhesus H3 radioligand binding assay ([3H]-Methylhistamine displacement, WGA SPA)
- REPORTED_CONDITIONS: [3H]-Methylhistamine 2 nM; rhesus H3 membranes from Flp-In T-REx 293 cells; 25° C., 1 hour; Ki by Cheng-Prusoff equation
- Description: Rhesus H3 membranes were prepared from the Flp-In T-REx 293 Cell Line (Invitrogen) stably transfected with pcDNA5/FRT/TO (Invitrogen) containing the rhesus monkey (Macacca Mulatta) 445 amino acid H3 receptor. (Genbank #AY231164). Stably transfected cultures were amplified in tissue culture flasks by standard tissue culture methods and induced to express rhesus H3 by exposure to 500 ng/ml tetracycline (Cellgro) for 24 hours. […]
pKi: −log10 of the molar value.
REPORTED_PROPERTY: pKi

Worked set:
Cc1nc(N2CC[C@H](N3CCC[C@@H]3C)C2)ccc1NS(=O)(=O)c1ccc(F)c(F)c1: 8.60
Cc1nc(N2CC[C@@H](N3CCC[C@@H]3C)C2)ccc1NS(=O)(=O)C1CC1: 7.43
Cc1nc(N2CC[C@@H](N3CCC[C@@H]3C)C2)ccc1NC(=O)c1cccs1: 7.44
Cc1nc(N2CC[C@H](N3CCC[C@@H]3C)C2)ccc1NC(=O)Cc1ccccc1: 8.31

A = Cc1nc(N2CC[C@H](N3CCC[C@@H]3C)C2)ccc1NC(=O)c1cccc2ccccc12
B = Cc1nc(N2CC[C@@H](N3CCC[C@@H]3C)C2)ccc1NS(=O)(=O)c1ccc(F)cc1
C = Cc1nc(N2CC[C@H](N3CCC[C@@H]3C)C2)ccc1NC(=O)C1CCOCC1
D = Cc1nc(N2CC[C@H](N3CCC[C@@H]3C)C2)ccc1NC(=O)c1ccccc1
Query: Sort (4 molecules) by pKi: min first. Submit the labels in the order that the ranking request calls for.
Response: B, D, A, C
(B: 7.53, D: 8.09, A: 8.37, C: 8.62)
